study system: CD28, full-length, expressed on transfected cells (Homo sapiens (Human)) (UniProt P10747)
assay method text: flow cytometry, cells expressing target
property name: parental ratio

Previously resolved entries follow.
ICOSL ECD-Fc F120S/Y152H/N201S (Fc fusion) DTQEKEVRAMVGSDVELSCACPEGSRFDLNDVYVYWQTSESKTVVTYHIPQNSSLENVDSRYRNRALMSPAGMLRGDFSLRLFNVTPQDEQKFHCLVLSQSLGFQEVLSVEVTLHVAANSSVPVVSAPHSPSQDELTFTCTSINGYPRPNVHWINKTDNSLLDQALQNDTVFLNMRGLYDVVSVLRIARTPSVNIGCCIESVLLQQNLTVGSQTGNDIGERDKITENPVSTGEKNAAT :: 0.89 ratio to WT
ICOSL ECD-Fc N52S (Fc fusion) DTQEKEVRAMVGSDVELSCACPEGSRFDLNDVYVYWQTSESKTVVTYHIPQSSSLENVDSRYRNRALMSPAGMLRGDFSLRLFNVTPQDEQKFHCLVLSQSLGFQEVLSVEVTLHVAANFSVPVVSAPHSPSQDELTFTCTSINGYPRPNVYWINKTDNSLLDQALQNDTVFLNMRGLYDVVSVLRIARTPSVNIGCCIENVLLQQNLTVGSQTGNDIGERDKITENPVSTGEKNAAT :: 9 ratio to WT
ICOSL ECD-Fc N52D (Fc fusion) DTQEKEVRAMVGSDVELSCACPEGSRFDLNDVYVYWQTSESKTVVTYHIPQDSSLENVDSRYRNRALMSPAGMLRGDFSLRLFNVTPQDEQKFHCLVLSQSLGFQEVLSVEVTLHVAANFSVPVVSAPHSPSQDELTFTCTSINGYPRPNVYWINKTDNSLLDQALQNDTVFLNMRGLYDVVSVLRIARTPSVNIGCCIENVLLQQNLTVGSQTGNDIGERDKITENPVSTGEKNAAT :: 7.22 ratio to WT
ICOSL ECD-Fc N52S/Y152H (Fc fusion) DTQEKEVRAMVGSDVELSCACPEGSRFDLNDVYVYWQTSESKTVVTYHIPQSSSLENVDSRYRNRALMSPAGMLRGDFSLRLFNVTPQDEQKFHCLVLSQSLGFQEVLSVEVTLHVAANFSVPVVSAPHSPSQDELTFTCTSINGYPRPNVHWINKTDNSLLDQALQNDTVFLNMRGLYDVVSVLRIARTPSVNIGCCIENVLLQQNLTVGSQTGNDIGERDKITENPVSTGEKNAAT :: 3.78 ratio to WT
ICOSL ECD-Fc N52S/D158G (Fc fusion) DTQEKEVRAMVGSDVELSCACPEGSRFDLNDVYVYWQTSESKTVVTYHIPQSSSLENVDSRYRNRALMSPAGMLRGDFSLRLFNVTPQDEQKFHCLVLSQSLGFQEVLSVEVTLHVAANFSVPVVSAPHSPSQDELTFTCTSINGYPRPNVYWINKTGNSLLDQALQNDTVFLNMRGLYDVVSVLRIARTPSVNIGCCIENVLLQQNLTVGSQTGNDIGERDKITENPVSTGEKNAAT :: 2.17 ratio to WT

*Q* Please look up its parental ratio: ICOSL ECD-Fc N52S/Y146C/Y152C (Fc fusion) DTQEKEVRAMVGSDVELSCACPEGSRFDLNDVYVYWQTSESKTVVTYHIPQSSSLENVDSRYRNRALMSPAGMLRGDFSLRLFNVTPQDEQKFHCLVLSQSLGFQEVLSVEVTLHVAANFSVPVVSAPHSPSQDELTFTCTSINGCPRPNVCWINKTDNSLLDQALQNDTVFLNMRGLYDVVSVLRIARTPSVNIGCCIENVLLQQNLTVGSQTGNDIGERDKITENPVSTGEKNAAT
*A* 2.17 ratio to WT

These measurements were taken from patent US20250163127A1.
